The values you see were collected from the supplement of paper PMC9170038.

tested on: MS2 coat protein; assay: apparent KD of MS2 coat protein; higher = weaker reporter binding; conditions: Eterna round: R107; input ligand: none
The label depends only on apparent KD of MS2 coat protein: t if it is at least 50 nM, f if it is smaller.

Worked examples, 2 sequences total:
sequence_string	group
CGACGAGACCUGGAUACCAGCGACAUGAGGAUCACCCAUGUAUGUGGAUCAGCCAUGAUAUGCCCUUGGCAGCCACCGAGGUCGG [PPPMULLIN]	f
CGUAUGUAGACGGCCGCCACUGGAACAAGAGGAUCACCCUUGUACAGGGUGGGACUAUCGAGAGUCAGGACCGGGUCUACAUACA [Tryp B Ex t2]	t

Query: Check this sequence for apparent KD of MS2 coat protein at or above 50 nM: GUAUUUAUAUGAAGGAGCGUCGAAAAUGGGUAAACAUGAGGAUCACCCAUGUAAAGGGAACGACAGGUAGGUCGCAUAUGGAUAC [AstromonsSSArgB#25]
Response: t

Query: API: above_or_equal(metric=apparent KD of MS2 coat protein, cutoff=50 nM) for item GAACAAGGUUUCUUGUUCGGUCGCUGAGAAGGAGCGCGGUAACCCGCAGGUAGGUCGCUCAGAAAUACAUGAGGAUCACCCAUGU [Anaa]
Response: f

Query: Test whether the sequence CGAGCUGACGGAAGGAGCGAAGCCUACUCGGUGUUCCCACAUGAGGAUCACCCAUGUGGGCUUCAGGUAGGUCGCCGAACAGUCG [Vecequlala] records apparent KD of MS2 coat protein of 50 nM or higher.
Response: f

Query: Given the entry UUUUAAUGUGCGGAUACCAGCCGUACAUGAGGAUCACCCAUGUCGCUGUUGAGCAUCGUCGGCCCUUGGCAGCUGUGUGUAGUUG [#27 Same State - Theophylline B] , answer whether its apparent KD of MS2 coat protein meets or surpasses 50 nM.
Response: t
